assay: PK test experiments in beagle dogs; format: in vivo; details: male, dog, plasma, PO, 2.5 mg/kg
Measurement type: AUC(0-t) (ng·h/mL)
Response body: numeric value in ng·h/mL, unit text excluded.

CC(C)N1Cc2cc(OCCC3CC3)c3c(c2-c2cc(=O)c(C(=O)O)cn21)CCO3: 60500

Consider now this further compound.
stdin: Need AUC(0-t) of `CC(C)N1Cc2cc(-c3cnn(C(F)F)c3)c3c(c2-c2cc(=O)c(C(=O)O)cn21)CCO3` , thanks.
stdout: 45500

---

test: PK test experiments in SD rats; type: in vivo; settings: male, rat, plasma, PO, 5 mg/kg
Measurement type: AUC(0-inf) (ng·h/mL)
Give your result in ng·h/mL as a bare value.

The following molecules have reported results that may help.
CC(C)N1Cc2cc(OCCC3CC3)c3c(c2-c2cc(=O)c(C(=O)O)cn21)CCO3: 17800
CC(C)N1Cc2cc(-c3cnn(C(C)C)c3)c3c(c2-c2cc(=O)c(C(=O)O)cn21)CCO3: 10700
CC(C)C1Cc2cc(-c3cnn(C(C)C)c3)c3c(c2-c2cc(=O)c(C(=O)O)cn21)CCO3 (stereo not drawn): 5590
CC(C)C1Cc2cc(OCCC3CC3)c3c(c2-c2cc(=O)c(C(=O)O)cn21)CCO3 (stereo not drawn): 14800
CC1(C)CCC2c3cc(OCCC4CC4)c4c(c3-c3cc(=O)c(C(=O)O)cn3N21)CCO4 (stereo not drawn): 18400

Here is the next item to consider.
stdin: If you can, please state the reported AUC(0-inf) value of COCCCOc1cc2c(c3c1OCC3)-c1cc(=O)c(C(=O)O)cn1C(C(C)C)C2 (stereo not drawn) .
stdout: 10600

---

assay: PK test experiments in SD rats; assay type: in vivo; details: PO, 5 mg/kg
Property: F; scope: individual molecules
Number first, unit second: that is the form wanted.

Some solved entries appear below for comparison.
CC(C)N1Cc2cc(OCCC3CC3)c3c(c2-c2cc(=O)c(C(=O)O)cn21)CCO3: 157.9%
CC(C)C1Cc2cc(-c3cnn(C(C)C)c3)c3c(c2-c2cc(=O)c(C(=O)O)cn21)CCO3 (stereo not drawn): 94%
COCCCOc1cc2c(c3c1OCC3)-c1cc(=O)c(C(=O)O)cn1C(C(C)C)C2 (stereo not drawn): 174.5%
CC1(C)CCC2c3cc(OCCC4CC4)c4c(c3-c3cc(=O)c(C(=O)O)cn3N21)CCO4 (stereo not drawn): 129%
CC(C)N1Cc2cc(-c3cnn(C(C)C)c3)c3c(c2-c2cc(=O)c(C(=O)O)cn21)CCO3: 130.6%

Kindly review the next molecule as well.
stdin: Which F reading was recorded for the molecule CC(C)C1Cc2cc(OCCC3CC3)c3c(c2-c2cc(=O)c(C(=O)O)cn21)CCO3 (stereo not drawn) ?
stdout: 167.4%

---

# reported AUC(0-t); entries follow
assay: PK test experiments in SD rats; format: in vivo; conditions: male, rat, plasma, PO, 5 mg/kg
Answer format: numeric, ng·h/mL implied, no suffix.

CC(C)N1Cc2cc(-c3cnn(C(C)C)c3)c3c(c2-c2cc(=O)c(C(=O)O)cn21)CCO3 [Example 17]: 10700
CC1(C)CCC2c3cc(OCCC4CC4)c4c(c3-c3cc(=O)c(C(=O)O)cn3N21)CCO4 (stereo not drawn) [Example 13]: 18300
CC(C)N1Cc2cc(OCCC3CC3)c3c(c2-c2cc(=O)c(C(=O)O)cn21)CCO3 [Example 15]: 17700
CC(C)C1Cc2cc(OCCC3CC3)c3c(c2-c2cc(=O)c(C(=O)O)cn21)CCO3 (stereo not drawn) [Example 3]: 14700
CC(C)C1Cc2cc(-c3cnn(C(C)C)c3)c3c(c2-c2cc(=O)c(C(=O)O)cn21)CCO3 (stereo not drawn) [Example 9]: 5560

Turning to the following molecule.
stdin: Quick check: AUC(0-t) of COCCCOc1cc2c(c3c1OCC3)-c1cc(=O)c(C(=O)O)cn1C(C(C)C)C2 (stereo not drawn) [Example 2] ?
stdout: 10600

---

assay: PK test experiments in SD rats; assay type: in vivo; conditions: male, rat, plasma, IV, 1 mg/kg
Decision: AUC(0-inf) beneath 2000 ng·h/mL gives y; AUC(0-inf) meeting or exceeding 2000 ng·h/mL gives n.

Here are 5 molecules together with their reported answers.
CC1(C)CCC2c3cc(OCCC4CC4)c4c(c3-c3cc(=O)c(C(=O)O)cn3N21)CCO4 (stereo not drawn) [Example 13]: n
COCCCOc1cc2c(c3c1OCC3)-c1cc(=O)c(C(=O)O)cn1C(C(C)C)C2 (stereo not drawn) [Example 2]: y
CC(C)C1Cc2cc(-c3cnn(C(C)C)c3)c3c(c2-c2cc(=O)c(C(=O)O)cn21)CCO3 (stereo not drawn) [Example 9]: y
CC(C)N1Cc2cc(-c3cnn(C(C)C)c3)c3c(c2-c2cc(=O)c(C(=O)O)cn21)CCO3 [Example 17]: y
CC(C)C1Cc2cc(OCCC3CC3)c3c(c2-c2cc(=O)c(C(=O)O)cn21)CCO3 (stereo not drawn) [Example 3]: y

Now consider a different molecule.
stdin: Quick check: AUC(0-inf) of CC(C)N1Cc2cc(OCCC3CC3)c3c(c2-c2cc(=O)c(C(=O)O)cn21)CCO3 [Example 15] under 2000 ng·h/mL?
stdout: n

---

assay: PK test experiments in SD rats; type: in vivo; settings: male, rat, plasma, IV, 1 mg/kg
Measurement type: AUC(0-t) (ng·h/mL)
State the answer as a number, implicitly in ng·h/mL.

CC(C)C1Cc2cc(OCCC3CC3)c3c(c2-c2cc(=O)c(C(=O)O)cn21)CCO3 (stereo not drawn): 1630

stdin: Form field: reported AUC(0-t) of `CC(C)N1Cc2cc(-c3cnn(C(C)C)c3)c3c(c2-c2cc(=O)c(C(=O)O)cn21)CCO3`
stdout: 1610

stdin: So what's the measured AUC(0-t) for this one? `CC(C)N1Cc2cc(OCCC3CC3)c3c(c2-c2cc(=O)c(C(=O)O)cn21)CCO3`
stdout: 2140

stdin: Entry COCCCOc1cc2c(c3c1OCC3)-c1cc(=O)c(C(=O)O)cn1C(C(C)C)C2 (stereo not drawn) : reported AUC(0-t) = ?
stdout: 1210

stdin: Give its AUC(0-t) value. Item: CC(C)C1Cc2cc(-c3cnn(C(C)C)c3)c3c(c2-c2cc(=O)c(C(=O)O)cn21)CCO3 (stereo not drawn)
stdout: 1180

stdin: Which measured AUC(0-t) value corresponds to CC1(C)CCC2c3cc(OCCC4CC4)c4c(c3-c3cc(=O)c(C(=O)O)cn3N21)CCO4 (stereo not drawn) ?
stdout: 2830

---

Experiment: PK test experiments in SD rats
Assay type: in vivo
Parameters: unit not given here
Details: IV, 1 mg/kg
Protocol: The PK test in vivo of the compound of the present invention in SD rats (body weight 200-250 g, male, age 2-3 months, 3 per group with oral administration, 3 per group with intravenous injection) The SD rat was administered orally with 2.5 mg/kg or 5 mg/kg of the compound tested or intravenously injected with 0.5 mg/kg or 1 mg/kg of the compound tested. […] Pharmacokinetic parameters were calculated using a noncompartmental method by WinNonLin 6.3 software.
Measurement type: VSS
A bare number is all that is needed in reply.

CC(C)N1Cc2cc(-c3cnn(C(C)C)c3)c3c(c2-c2cc(=O)c(C(=O)O)cn21)CCO3 [Example 17]: 1.01
CC(C)C1Cc2cc(-c3cnn(C(C)C)c3)c3c(c2-c2cc(=O)c(C(=O)O)cn21)CCO3 (stereo not drawn) [Example 9]: 2.2
CC(C)C1Cc2cc(OCCC3CC3)c3c(c2-c2cc(=O)c(C(=O)O)cn21)CCO3 (stereo not drawn) [Example 3]: 1.5
CC1(C)CCC2c3cc(OCCC4CC4)c4c(c3-c3cc(=O)c(C(=O)O)cn3N21)CCO4 (stereo not drawn) [Example 13]: 1.4
CC(C)N1Cc2cc(OCCC3CC3)c3c(c2-c2cc(=O)c(C(=O)O)cn21)CCO3 [Example 15]: 0.9

stdin: VSS lookup needed for COCCCOc1cc2c(c3c1OCC3)-c1cc(=O)c(C(=O)O)cn1C(C(C)C)C2 (stereo not drawn) [Example 2] , thanks.
stdout: 1.8

---

Assay: PK test experiments in beagle dogs
Type: in vivo
Conditions: male, dog, plasma, PO, 2.5 mg/kg
Protocol: The PK test in vivo of the compound of the present invention in beagle dogs (body weight 10-12 kg, male, age 10-12 months, 3 per group with oral administration, 3 per group with intravenous injection) The beagle dog was […] […] Plasma samples were extracted by liquid-liquid extraction and quantitatively analyzed by multiple reaction ion monitoring (MRM) on a triple quadrupole tandem mass spectrometer. Pharmacokinetic parameters were calculated using a noncompartmental method by WinNonLin 6.3 software.
Each item that follows carries a reported AUC(0-inf).
The reply should be a number in ng·h/mL, with the unit left off.

CC(C)N1Cc2cc(-c3cnn(C(F)F)c3)c3c(c2-c2cc(=O)c(C(=O)O)cn21)CCO3 [Example 43]: 49300

stdin: Record request: AUC(0-inf) value, item CC(C)N1Cc2cc(OCCC3CC3)c3c(c2-c2cc(=O)c(C(=O)O)cn21)CCO3 [Example 15]
stdout: 62400

The reported measurements were obtained from patent US11447498B2.
